test: chemical genetic growth profiling, strain panel (AID 1159580);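 further: tested at 20 µM; growth read once vehicle control cultures reached saturation at 30 °C; 1 = growth at the plate median or of vehicle wells; lower values mean less growth of the strain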; details: S. cerevisiae deletion strains, growth OD, locus YHR027C, strain rpn1, active compounds read low
About 2,000 (36%) of roughly 5,500 compounds were called active. Roughly 18% stayed inconclusive and do not appear here. Some of the results follow.
readout-type: normalized growth

Name the reported normalized growth value associated with the compound O=C1N=C(O)CN1/N=C\c1ccc(-c2ccc([N+](=O)[O-])cc2)o1
0.992 (inactive)

Name the reported normalized growth value associated with the compound COc1cc(C)c2c(c1C=O)Oc1c(c(C)c(O)c3c1C(O)OC3=O)OC2=O (stereo unspecified)
1.01 (inactive)

Name the reported normalized growth value associated with the compound O=C(O)c1cc(O)c(O)c(O)c1
1.01 (inactive)

Name the reported normalized growth value associated with the compound COc1ccc(-c2cc(C(F)F)nn2-c2ccc(S(N)(=O)=O)cc2)cc1F
1.01 (inactive)

Name the reported normalized growth value associated with the compound COc1ccccc1OCC(O)CN1CCN(CC(=O)Nc2c(C)cccc2C)CC1 (stereo unspecified)
0.988 (inactive)

Name the reported normalized growth value associated with the compound O=C(O)c1cc(=O)c(O)c2c(O)c(O)ccc2c1
0.998 (inactive)

Name the reported normalized growth value associated with the compound C[C@@H]1CC2C3CCC4=CC(=O)C=C[C@]4(C)[C@@]3(F)[C@@H](O)C[C@]2(C)[C@@]1(O)C(=O)COP(=O)(O)O (stereo partly specified)
0.982 (inactive)

Name the reported normalized growth value associated with the compound C[C@](N)(Cc1ccc(O)cc1)C(=O)O
0.997 (inactive)

Name the reported normalized growth value associated with the compound CCOC(N)=O
0.997 (inactive)

Name the reported normalized growth value associated with the compound O=C(NC(=O)c1c(F)cccc1F)Nc1cc(Cl)c(OC(F)(F)C(F)C(F)(F)F)cc1Cl (stereo unspecified)
0.996 (inactive)

Name the reported normalized growth value associated with the compound NC(=O)N/N=C\c1ccc([N+](=O)[O-])o1
0.988 (inactive)

Name the reported normalized growth value associated with the compound CN(Cc1cnc2nc(N)nc(N)c2n1)c1ccc(C(=O)NC(CCC(=O)O)C(=O)O)cc1 (stereo unspecified)
0.945 (inactive)

Name the reported normalized growth value associated with the compound CC12CCC3C(CC=C4CC(O)CCC43C)C1CCC2=O (stereo unspecified)
0.895 (active)

Name the reported normalized growth value associated with the compound O=C1CN(/N=C\c2ccc([N+](=O)[O-])o2)C(=O)N1
0.985 (inactive)

Name the reported normalized growth value associated with the compound Nc1nc2ncc(CNc3ccc(C(=O)N[C@@H](CCC(=O)O)C(=O)O)cc3)nc2c(=O)[nH]1
1 (inactive)

Name the reported normalized growth value associated with the compound O=C1OCCN1/N=C\c1ccc([N+](=O)[O-])o1
0.967 (inactive)

Name the reported normalized growth value associated with the compound CC1(C)O[C@@H]2[C@@H](CO[C@@]3(COS(N)(=O)=O)OC(C)(C)O[C@@H]23)O1
1.01 (inactive)

Name the reported normalized growth value associated with the compound O=C(O)c1cc(=O)c(O)c2c(O)c(O)c(O)cc2c1
0.422 (active)

Name the reported normalized growth value associated with the compound CC1(C)C2CC(=O)O[C@@]3(C)C4=CC(=O)O[C@@H](c5ccoc5)[C@]4(C)CCC3[C@@]2(C)C=C[C@H]1O (stereo partly specified)
0.983 (inactive)

Name the reported normalized growth value associated with the compound CC1=CC(=O)CC(C)(C)C1(O)/C=C/C(C)=C\C(=O)O (stereo unspecified)
1.02 (inactive)

Name the reported normalized growth value associated with the compound CC(=O)O[C@H]1CC[C@@]2(C)C(=CCC3C2CC[C@]2(C)C(=O)CCC32)C1 (stereo partly specified)
1.02 (inactive)

====

experiment: chemical genetic growth profiling, strain panel (AID 1159580); conditions: S. cerevisiae deletion strains, growth OD, locus YLR113W, strain HOG1, active compounds read low
About 2,000 (36%) of roughly 5,500 compounds were called active. Another 18% or so got no clear call; they are omitted. The list shows a part of the results.
readout-type: normalized growth

Name the reported normalized growth value associated with the compound CCCCC(CC)CN=C(N)NC(N)=NCCCCCCN=C(N)NC(N)=NCC(CC)CCCC (stereo unspecified)
0.113 (active)

Name the reported normalized growth value associated with the compound COc1ccccc1NC(=O)Nc1nn(C)c2cccc(OC)c12
0.599 (active)

Name the reported normalized growth value associated with the compound C/C=C/c1ccc(OC)cc1
0.91 (inactive)

Name the reported normalized growth value associated with the compound COc1ccc(/C=C/c2cc(O)cc(O)c2)cc1
0.966 (inactive)

Name the reported normalized growth value associated with the compound C#C[C@]1(O)CCC2C3CCc4cc(O)ccc4C3CC[C@@]21C (stereo partly specified)
1.05 (inactive)

Name the reported normalized growth value associated with the compound CSc1c(C#N)c(-c2ccc(Cl)cc2)nn1C(=O)c1ccccc1Cl
0.76 (active)

====

test: chemical genetic growth profiling, strain panel (AID 1159580); conditions: S. cerevisiae deletion strains, growth OD, locus YLL041C, strain sdh2, active compounds read low
Among all 5,500 compounds or so, about 2,000 (36%) were called active. Roughly 18% stayed inconclusive and do not appear here. The list shows a part of the results.
Provide the recorded normalized growth for the entries that follow.
Reply with just the number.

Name the reported normalized growth value associated with the compound c1ccc(-c2ccc(C(c3ccccc3)n3ccnc3)cc2)cc1 (stereo unspecified)
0.0629

Name the reported normalized growth value associated with the compound c1cc2c(cc1[C@H]1OC[C@H]3[C@@H]1CO[C@H]3c1ccc3c(c1)OCO3)OCO2
0.926

Name the reported normalized growth value associated with the compound O=C(O)c1ccc2c(c1)OCO2
1

Name the reported normalized growth value associated with the compound O=C(NC(Cc1cc(=O)[nH]c2ccccc12)C(=O)O)c1ccc(Cl)cc1 (stereo unspecified)
0.997

Name the reported normalized growth value associated with the compound OC1CCCCC1N1CCC(c2ccccc2)CC1 (stereo unspecified)
0.99

Name the reported normalized growth value associated with the compound C=CCN1CC[C@]23c4c5ccc(O)c4OC2C(=O)CC[C@@]3(O)[C@H]1C5 (stereo partly specified)
0.963

====

assay: chemical genetic growth profiling, strain panel (AID 1159580);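 further: tested at 20 µM; growth read once vehicle control cultures reached saturation at 30 °C; 1 = growth at the plate median or of vehicle wells; lower values mean less growth of the strain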; conditions: S. cerevisiae deletion strains, growth OD, locus YNL248C, strain rpa49, active compounds read low
The campaign covered roughly 5,500 compounds. About 2,000 (36%) were called active. Another 18% or so got no clear call; they are omitted. The list shows a part of the results.
readout-type: normalized growth
Reply with just the number.

Name the reported normalized growth value associated with the compound O=C(O)c1ccc2c(c1)OCO2
1.02

Name the reported normalized growth value associated with the compound Nc1nc(N)c2nc(CNc3ccc(C(=O)NC(CCC(=O)O)C(=O)O)cc3)cnc2n1 (centres undefined)
1.02

Name the reported normalized growth value associated with the compound c1cc2c(cc1[C@H]1OC[C@H]3[C@@H]1CO[C@H]3c1ccc3c(c1)OCO3)OCO2
0.948

Name the reported normalized growth value associated with the compound COc1ccc(/C=C/c2cc(O)cc(O)c2)cc1
0.999

====

test: chemical genetic growth profiling, strain panel (AID 1159580);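 further: tested at 20 µM; growth read once vehicle control cultures reached saturation at 30 °C; 1 = growth at the plate median or of vehicle wells; lower values mean less growth of the strain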; conditions: S. cerevisiae deletion strains, growth OD, locus YLR221C, strain rsa3, active compounds read low
The campaign covered roughly 5,500 compounds. About 2,000 (36%) were called active. Another 18% or so got no clear call; they are omitted. This is one part of the list.
readout-type: normalized growth
Reply with just the number.

Name the reported normalized growth value associated with the compound CC(=O)O[C@H]1CC[C@@]2(C)C(=CCC3C2CC[C@]2(C)C(=O)CCC32)C1 (stereo partly drawn)
0.966

Name the reported normalized growth value associated with the compound Oc1ccc(/C=C/c2cc(O)cc(O)c2)cc1
0.972

Name the reported normalized growth value associated with the compound O=C(/C=C/c1ccc(O)c(O)c1)O[C@@H]1C[C@](O)(C(=O)O)C[C@@H](O)[C@H]1O
0.972

Name the reported normalized growth value associated with the compound c1ccc(-c2ccc(C(c3ccccc3)n3ccnc3)cc2)cc1 (stereo not drawn)
0.0622

Name the reported normalized growth value associated with the compound CO[C@@H]1[C@@H](O[C@@H]2O[C@H](C)[C@@H](O[C@H]3C[C@@](C)(O)[C@H](O)[C@H](C)O3)[C@H](N(C)C)[C@H]2O)[C@@H](CC=O)C[C@@H](C)[C@@H](O[C@H]2CC[C@H](N(C)C)[C@@H](C)O2)/C=C/C=C/C[C@H](C)OC(=O)C[C@H]1O
1

Name the reported normalized growth value associated with the compound Nc1nc2ncc(CNc3ccc(C(=O)N[C@@H](CCC(=O)O)C(=O)O)cc3)nc2c(=O)[nH]1
0.995

Name the reported normalized growth value associated with the compound CC(=O)O[C@H]1CC[C@@]2(C)C(=CCC3C2CC[C@@]2(C)C3CC[C@@H]2C(C)CCCC(C)C)C1 (stereo partly drawn)
0.979

Name the reported normalized growth value associated with the compound OC/C=C/c1ccc(O)c(O)c1
1

====

test: chemical genetic growth profiling, strain panel (AID 1159580);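 further: tested at 20 µM; growth read once vehicle control cultures reached saturation at 30 °C; 1 = growth at the plate median or of vehicle wells; lower values mean less growth of the strain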; settings: S. cerevisiae deletion strains, growth OD, locus YMR125W, strain sto1, active compounds read low
In all, about 5,500 compounds went through this assay and about 2,000 (36%) were called active. About 18% were inconclusive and are not listed. The list shows a part of the results.
readout-type: normalized growth
Reply with just the number.

Name the reported normalized growth value associated with the compound O=C1CN(/N=C\c2ccc([N+](=O)[O-])o2)C(=O)N1
0.943

Name the reported normalized growth value associated with the compound NC(=O)N/N=C\c1ccc([N+](=O)[O-])o1
0.993

Name the reported normalized growth value associated with the compound C#C[C@]1(O)CCC2C3CCc4cc(OC)ccc4C3CC[C@@]21C (some centres not stated)
0.951

Name the reported normalized growth value associated with the compound CCOC(N)=O
0.986

Name the reported normalized growth value associated with the compound COc1ccc(CN(CCN(C)C)c2ncccn2)cc1
1.01

Name the reported normalized growth value associated with the compound c1ccc(-c2ccc(C(c3ccccc3)n3ccnc3)cc2)cc1 (configuration not stated)
0.082

Name the reported normalized growth value associated with the compound C=CCc1cc(OC)c2c(c1OC)OCO2
0.896

Name the reported normalized growth value associated with the compound C[C@]12CCC3c4ccc(OS(=O)(=O)O)cc4CCC3C1CCC2=O (some centres not stated)
0.97

Name the reported normalized growth value associated with the compound CCCc1cc(OC)c2c(c1)OCO2
0.971

Name the reported normalized growth value associated with the compound O=C1N=C(O)CN1/N=C\c1ccc(-c2ccc([N+](=O)[O-])cc2)o1
0.974

Name the reported normalized growth value associated with the compound COP(=S)(OC)Oc1ccc(SC)c(C)c1
1.05

Name the reported normalized growth value associated with the compound C[C@@H]1C[C@@H]([C@H](O)CC2CC(=O)NC(=O)C2)C(=O)[C@@H](C)C1
0.0765

Values were extracted from PubChem BioAssay AID1159580.
